# IC50 per entry
Molecular target: GABA transporter 2 (Mus musculus)
Test: Inhibition of mouse GAT2 expressed in HEK293 cells assessed as decrease in [3H]GABA uptake preincubated for 25 mins followed by [3H]GABA addition measured after 10 mins by liquid scintillation counter method
Provide only the numeric value, understood in µM.

Some molecules with recorded IC50:
| smiles record | value unit | IC50 |
| --- | --- | --- |
| COc1ccc(C2(OCCCCCn3cnc(CC(=O)O)c3)c3ccccc3-c3ccccc32)cc1 | µM | 61.7 |
| COc1ccc(C2(OCCCCn3cnc(CC(=O)O)c3)c3ccccc3-c3ccccc32)cc1 | µM | 24 |
| COc1ccc(C2(OCCCCn3ccnc3CCC(=O)O)c3ccccc3-c3ccccc32)cc1 | µM | 25.1 |
| COc1ccc(C2(/C=C/Cn3ccnc3CCC(=O)O)c3ccccc3-c3ccccc32)cc1 | µM | 25.1 |

We now examine a further molecule.
Summary: COc1ccc(C2(OC/C=C/Cn3ccnc3CCC(=O)O)c3ccccc3-c3ccccc32)cc1 , GABA transporter 2 (Mus musculus), IC50 = 32.4

* * *

Target: GABA transporter 4 (Mus musculus, UniProt P31650)
Assay: Inhibition of mouse GAT4 expressed in HEK293 cells assessed as decrease in [3H]GABA uptake preincubated for 25 mins followed by [3H]GABA addition measured after 4 mins by liquid scintillation counter method
value type: pIC50
Hey, just a heads up that pIC50 is the negative log base 10 of the concentration in molar.

Some compounds with recorded pIC50:
| compound | target entity | pIC50 |
| --- | --- | --- |
| COc1ccc(C2(/C=C/Cn3ccnc3CCC(=O)O)c3ccccc3-c3ccccc32)cc1 | GABA transporter 4 (Mus musculus, UniProt P31650) | 4.36 |
| O=C(O)CCc1ncc[nH]1 | GABA transporter 4 (Mus musculus, UniProt P31650) | 3.51 |
| COc1ccc(C2(OCCN3CCCC(C(=O)O)C3)c3ccccc3-c3ccccc32)cc1 (configuration not stated) | GABA transporter 4 (Mus musculus, UniProt P31650) | 4.52 |
| COc1ccc(C2(/C=C/Cn3cncc3CC(=O)O)c3ccccc3-c3ccccc32)cc1 | GABA transporter 4 (Mus musculus, UniProt P31650) | 3.96 |
| COc1ccc(C2(OCCCCCn3ccnc3CCC(=O)O)c3ccccc3-c3ccccc32)cc1 | GABA transporter 4 (Mus musculus, UniProt P31650) | 4.53 |

We now examine a further compound.
The measured pIC50 associated with COc1ccc(C2(OCCCCn3ccnc3CCC(=O)O)c3ccccc3-c3ccccc32)cc1 reads 3.76

* * *

# IC50 per entry
Biological target: GABA transporter 2 (Mus musculus)
Assay: Inhibition of mouse GAT2 expressed in HEK293 cells assessed as decrease in [3H]GABA uptake preincubated for 25 mins followed by [3H]GABA addition measured after 10 mins by liquid scintillation counter method
State the value, then name its unit.

Some compounds with recorded IC50:
| smiles record | target entity | IC50 |
| --- | --- | --- |
| COc1ccc(C2(OC/C=C\Cn3ccnc3CCC(=O)O)c3ccccc3-c3ccccc32)cc1 | GABA transporter 2 (Mus musculus) | 37.2 µM |
| COc1ccc(C2(OCCCCCn3ccnc3/C=C/C(=O)O)c3ccccc3-c3ccccc32)cc1 | GABA transporter 2 (Mus musculus) | 28.8 µM |
| COc1ccc(C2(OCCCCn3cncc3CC(=O)O)c3ccccc3-c3ccccc32)cc1 | GABA transporter 2 (Mus musculus) | 22.9 µM |
| O=C(O)CCc1nccn1CCC=C(c1ccccc1)c1ccccc1 | GABA transporter 2 (Mus musculus) | 58.9 µM |
| COc1ccc(C2(/C=C/Cn3cncc3CC(=O)O)c3ccccc3-c3ccccc32)cc1 | GABA transporter 2 (Mus musculus) | 166 µM |

The measured IC50 associated with O=C(O)CCc1ncc[nH]1 reads 525 µM

* * *

# IC50 per entry
Molecular target: GABA transporter 2 (Mus musculus)
Assay: Inhibition of mouse GAT2 expressed in HEK293 cells assessed as decrease in [3H]GABA uptake preincubated for 25 mins followed by [3H]GABA addition measured after 10 mins by liquid scintillation counter method
Provide only the numeric value, understood in µM.

| smiles record | IC50 (µM) |
| --- | --- |
| COc1ccc(C2(OCCCn3cnc(CC(=O)O)c3)c3ccccc3-c3ccccc32)cc1 | 97.7 |
| COc1ccc(C2(OCCCCCn3ccnc3CCC(=O)O)c3ccccc3-c3ccccc32)cc1 | 12.6 |

We now examine a further compound.
Summary: COc1ccc(C2(/C=C/COCCn3ccnc3CCC(=O)O)c3ccccc3-c3ccccc32)cc1 , GABA transporter 2 (Mus musculus), IC50 = 30.9

* * *

Molecular target: Sodium- and chloride-dependent GABA transporter 1 (Mus musculus)
Assay: Inhibition of mouse GAT1 expressed in HEK293 cells assessed as decrease in [3H]GABA uptake at 100 uM preincubated for 25 mins followed by [3H]GABA addition measured after 4 mins by liquid scintillation counter method
Format: cell-based
# inhibition per entry
Provide only the numeric value, understood in %.

| compound | inhibition (%) |
| --- | --- |
| COc1ccc(C2(OCCCn3cnc(CC(=O)O)c3)c3ccccc3-c3ccccc32)cc1 | 84.2 |
| COc1ccc(C2(OCCN3CCCC(C(=O)O)C3)c3ccccc3-c3ccccc32)cc1 (centres undefined) | 73.1 |
| COc1ccc(C2(OCCCn3cncc3CC(=O)O)c3ccccc3-c3ccccc32)cc1 | 50.1 |
| COc1ccc(C2(OCCn3cnc(CC(=O)O)c3)c3ccccc3-c3ccccc32)cc1 | 56.6 |
| O=C(O)CCc1ncc[nH]1 | 62.8 |

The measured inhibition associated with COc1ccc(C2(/C=C/Cn3cnc(CC(=O)O)c3)c3ccccc3-c3ccccc32)cc1 reads 62.4

The measured inhibition associated with COc1ccc(C2(OCCCCn3cnc(CC(=O)O)c3)c3ccccc3-c3ccccc32)cc1 reads 64.9

* * *

Biological target: GABA transporter 2 (Mus musculus) (UniProt P31651)
Sequence (whole entry): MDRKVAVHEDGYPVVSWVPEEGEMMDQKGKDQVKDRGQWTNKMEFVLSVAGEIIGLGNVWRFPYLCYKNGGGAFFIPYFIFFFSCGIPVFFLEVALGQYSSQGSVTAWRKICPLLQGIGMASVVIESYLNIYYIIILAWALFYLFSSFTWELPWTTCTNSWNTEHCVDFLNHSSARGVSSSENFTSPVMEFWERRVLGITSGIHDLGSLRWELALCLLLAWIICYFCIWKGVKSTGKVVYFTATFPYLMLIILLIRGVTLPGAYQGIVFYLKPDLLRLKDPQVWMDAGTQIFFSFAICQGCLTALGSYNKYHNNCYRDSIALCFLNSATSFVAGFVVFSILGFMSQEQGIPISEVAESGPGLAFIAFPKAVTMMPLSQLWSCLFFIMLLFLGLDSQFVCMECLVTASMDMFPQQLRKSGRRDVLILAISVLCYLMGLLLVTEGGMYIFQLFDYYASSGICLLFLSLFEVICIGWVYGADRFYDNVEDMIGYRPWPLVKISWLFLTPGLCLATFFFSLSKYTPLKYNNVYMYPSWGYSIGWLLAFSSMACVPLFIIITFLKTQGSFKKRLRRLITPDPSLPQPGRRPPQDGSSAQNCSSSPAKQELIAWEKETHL
Experiment: Inhibition of mouse GAT2 expressed in HEK293 cells assessed as decrease in [3H]GABA uptake at 100 uM preincubated for 25 mins followed by [3H]GABA addition measured after 10 mins by liquid scintillation counter method
Type: cell-based
value type: inhibition (%)
Provide only the numeric value, understood in %.

Some molecules with recorded inhibition:
| smiles record | inhibition, % |
| --- | --- |
| COc1ccc(C2(OCCCn3cncc3CC(=O)O)c3ccccc3-c3ccccc32)cc1 | 70.1 |
| COc1ccc(C2(OCCCCCn3cncc3CC(=O)O)c3ccccc3-c3ccccc32)cc1 | 38.5 |
| Cc1ccsc1C(=CCCN1CCC[C@@H](C(=O)O)C1)c1sccc1C | 52 |

The measured inhibition associated with COc1ccc(C2(OCCn3ccnc3CCC(=O)O)c3ccccc3-c3ccccc32)cc1 reads 53

The measured inhibition associated with O=C(O)/C=C/c1ncc[nH]1 reads 77.3

The measured inhibition associated with COc1ccc(C2(OCCn3cnc(CC(=O)O)c3)c3ccccc3-c3ccccc32)cc1 reads 44

* * *

Biological target: GABA transporter 4 (Mus musculus)
Sequence (whole entry): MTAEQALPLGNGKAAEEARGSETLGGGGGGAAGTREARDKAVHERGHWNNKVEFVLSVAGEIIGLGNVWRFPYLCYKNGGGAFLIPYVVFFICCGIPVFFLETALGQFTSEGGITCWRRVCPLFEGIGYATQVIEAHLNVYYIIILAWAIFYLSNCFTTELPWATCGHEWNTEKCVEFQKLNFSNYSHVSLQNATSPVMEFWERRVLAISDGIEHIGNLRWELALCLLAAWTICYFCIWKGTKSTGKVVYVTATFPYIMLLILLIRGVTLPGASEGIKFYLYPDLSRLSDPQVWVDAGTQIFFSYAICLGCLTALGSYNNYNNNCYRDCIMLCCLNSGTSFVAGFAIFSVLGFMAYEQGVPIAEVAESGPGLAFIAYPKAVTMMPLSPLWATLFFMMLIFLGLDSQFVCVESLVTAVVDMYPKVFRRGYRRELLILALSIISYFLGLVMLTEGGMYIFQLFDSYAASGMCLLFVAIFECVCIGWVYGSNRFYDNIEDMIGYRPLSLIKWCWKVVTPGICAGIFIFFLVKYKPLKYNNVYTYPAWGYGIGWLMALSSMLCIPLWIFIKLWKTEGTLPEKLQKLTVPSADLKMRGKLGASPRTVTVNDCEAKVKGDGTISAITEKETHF
Assay: Inhibition of mouse GAT4 expressed in HEK293 cells assessed as decrease in [3H]GABA uptake at 100 uM preincubated for 25 mins followed by [3H]GABA addition measured after 4 mins by liquid scintillation counter method
Assay type: cell-based
value type: inhibition (%)
Provide only the numeric value, understood in %.

Some molecules with recorded inhibition:
| smiles record | inhibition [%] |
| --- | --- |
| COc1ccc(C2(OCCCn3cncc3CC(=O)O)c3ccccc3-c3ccccc32)cc1 | 55.6 |
| O=C(O)CCc1nccn1CCC=C(c1ccccc1)c1ccccc1 | 53.7 |
| COc1ccc(C2(OCCn3ccnc3CCC(=O)O)c3ccccc3-c3ccccc32)cc1 | 58.3 |
| O=C(O)/C=C/c1ncc[nH]1 | 47.2 |
| COc1ccc(C2(OCCn3cnc(CC(=O)O)c3)c3ccccc3-c3ccccc32)cc1 | 85.4 |

The measured inhibition associated with COc1ccc(C2(OCCn3cncc3CC(=O)O)c3ccccc3-c3ccccc32)cc1 reads 46

The measured inhibition associated with COc1ccc(C2(OCCCCCn3cncc3CC(=O)O)c3ccccc3-c3ccccc32)cc1 reads 77.4

The measured inhibition associated with COc1ccc(C2(OCCCn3ccnc3CCC(=O)O)c3ccccc3-c3ccccc32)cc1 reads 55.4

Recorded values, source ChEMBL document CHEMBL3877251.
